- System: Enrlich carcinoma
- assay.info: Antineoplastic activity against Enrlich carcinoma (life prolongation rate)
- Assay type: in vivo, 5-week-old ICR mice (male)
- condition.context: Mus musculus, ip, 1440 h, […], intraperitoneal, (Note 1) administered for 4 days; read-out: Life prolongation rate (T/C %)
# if measured response vs control in vivo at 16 mg/kg < 200%: T  # else: F

**Q:** Is response vs control in vivo at 16 mg/kg strictly under 200% for the entry Brc1cccnc1 [Compound 1-14] ?
**A:** T

**Q:** Is response vs control in vivo at 16 mg/kg strictly under 200% for the entry Clc1cncc(Cl)c1 [Compound 1-15] ?
**A:** T

**Q:** Is response vs control in vivo at 16 mg/kg strictly under 200% for the entry CCc1ccncc1 [Compound 1-6] ?
**A:** T

**Q:** Is response vs control in vivo at 16 mg/kg strictly under 200% for the entry O=[Se](OC1C2CCC(C2)C1Cl)OC1C2CCC(C2)C1Cl (stereo not shown) [Compound 3-7, Di-(3-chloronorbonyl-2-il)selenite] ?
**A:** T

**Q:** Is response vs control in vivo at 16 mg/kg strictly under 200% for the entry Cn1cncc1Br [Compound 1-28] ?
**A:** F

**Q:** Is response vs control in vivo at 16 mg/kg strictly under 200% for the entry CCCCCCC(Cl)CO[Se](=O)OCC(Cl)CCCCCC (stereo not shown) [Compound 3-4, Di-(2-chlorooctyl)selenite] ?
**A:** T
